Origin of values: paper PMC7948474

# tested_on: CntA (Acinetobacter baumannii, UniProt D0C9N6)
# Construct: made in house; host or cells: Escherichia coli BL21(DE3)pLysS
# Sequence (D0C9N6 1-371): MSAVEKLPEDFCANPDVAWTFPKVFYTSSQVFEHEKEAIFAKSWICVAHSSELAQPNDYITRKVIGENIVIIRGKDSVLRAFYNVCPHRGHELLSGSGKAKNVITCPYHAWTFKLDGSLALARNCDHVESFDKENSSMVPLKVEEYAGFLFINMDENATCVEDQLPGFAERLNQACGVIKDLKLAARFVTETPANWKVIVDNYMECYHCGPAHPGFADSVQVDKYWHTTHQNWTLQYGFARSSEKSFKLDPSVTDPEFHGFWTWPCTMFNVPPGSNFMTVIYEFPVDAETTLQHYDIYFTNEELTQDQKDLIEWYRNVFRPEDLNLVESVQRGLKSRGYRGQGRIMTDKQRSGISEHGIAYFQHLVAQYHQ
# experimental_protocol: Substrate profiling of carnitine analogs with CntA (structure–activity relationship)
# Format: biochemical
# cond: substrate analogs tested as CntA substrates
quantity_measured: Oxidation by CntA (activity as substrate)

{"compound": "C[N+](C)(C)CCCC(=O)[O-] [compound 2, γ-butyrobetaine]", "measured_result": "oxidizing"}
{"compound": "C[N+](C)(C)CC(O)CC(=O)[O-] (stereo not shown) [compound 1, Carnitine]", "measured_result": "oxidizing"}
{"compound": "C[N+](C)(C)NCCC(=O)[O-] [compound 3, Meldonium]", "measured_result": "can also oxidize"}
{"compound": "CCCC[N+](C)(C)C [compound 4, (1-Butyl)Trimethylammonium]", "measured_result": "can also oxidize"}

====

# tested_on: CntA (Acinetobacter baumannii, UniProt D0C9N6)
# Construct: made in house; host or cells: Escherichia coli BL21(DE3)pLysS
# experimental_protocol: Inhibitory IC50 determination against CntA (UV-visible enzyme assay)
# Format: biochemical
quantity_measured: IC50 (µM)
Numeric answer only, unit µM assumed.

{"molecule": "c1csc(-c2cnc3sc(NCC4CCOCC4)nn23)c1 [MMV1]", "IC50, µM": 5.8}

Incoming: Determine its reported IC50: Brc1cncc(-c2cc(NCCCn3ccnc3)nc(-c3ccccc3)n2)c1 [MMV3]
Outgoing: 1.1

====

# tested_on: CntA (Acinetobacter baumannii, UniProt D0C9N6)
# Construct: made in house; host or cells: Escherichia coli BL21(DE3)pLysS
# experimental_protocol: Inhibitory IC50 determination against CntA (UV-visible enzyme assay)
# Type: biochemical
# cond: dose response, N=3; read-out: IC50 (inhibition of CntA activity)
quantity_measured: IC50 (mM)
Numeric answer only, unit mM assumed.

Incoming: Determine its reported IC50: N#CS [SCN, thiocyanate]
Outgoing: 35
